Molecular target: human CCR2 (Homo sapiens)
Sequence (P41597 1-360 isoform P41597-2): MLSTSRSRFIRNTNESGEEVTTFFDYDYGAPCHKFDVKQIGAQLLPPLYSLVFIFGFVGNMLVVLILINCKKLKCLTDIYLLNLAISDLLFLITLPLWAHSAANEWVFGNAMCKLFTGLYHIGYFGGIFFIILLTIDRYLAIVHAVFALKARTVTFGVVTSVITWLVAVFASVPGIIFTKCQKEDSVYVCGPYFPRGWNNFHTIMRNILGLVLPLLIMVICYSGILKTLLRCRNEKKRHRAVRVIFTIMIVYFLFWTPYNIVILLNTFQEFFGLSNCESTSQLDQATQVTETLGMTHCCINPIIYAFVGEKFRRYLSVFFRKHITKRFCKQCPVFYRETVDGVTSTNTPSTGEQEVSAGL
Test: Functional Ca2+ release test (B-1)
Details: Chem-1 cell line transfected with human CCR2; 50% inhibition of the MCP-1 effect, MCP-1 at EC50 (about 5 nM); in some cases means of several determinations
pIC50: −log10 of the molar value.
Kindly return criterion met if reported pIC50 is no lower than 9; return criterion not met if it is lower.

[[record]]
smilesstructure = "O=c1[nH]c(-c2nsc(Cl)c2Cl)nc(C(F)(F)F)c1Oc1ccc(Cl)c(C(F)(F)F)c1"
class = "criterion not met"

[[record]]
smilesstructure = "COc1nccnc1-c1nc(C(F)(F)F)c(Oc2ccc(Cl)c(C(F)(F)F)c2)c(=O)[nH]1"
class = "criterion met"

[[record]]
smilesstructure = "O=c1[nH]c(-c2ncccc2OC(F)(F)F)nc(C(F)(F)F)c1Oc1ccc(Cl)c(C(F)(F)F)c1"
class = "criterion not met"

[[record]]
smilesstructure = "COc1cccnc1-c1nc(C(F)(F)F)c(Oc2ccc(Cl)c(C)c2)c(=O)[nH]1"
class = "criterion met"

[[record]]
smilesstructure = "O=c1[nH]c(-c2nscc2O)nc(C(F)(F)F)c1Oc1ccc(Cl)c(C(F)(F)F)c1"
class = "criterion not met"

[[record]]
smilesstructure = "O=c1[nH]c(-c2ccncc2Cl)nc(C(F)(F)F)c1Oc1ccc(Cl)c(C(F)(F)F)c1"
class = "criterion not met"

[[record]]
smilesstructure = "CCCc1cc(-c2nc(C(F)(F)F)c(Oc3ccc(Cl)c(Cl)c3)c(=O)[nH]2)no1"
class = "criterion not met"

[[record]]
smilesstructure = "Nc1ncc(-c2nc(C(F)(F)F)c(Oc3ccc(Cl)c(Cl)c3)c(=O)[nH]2)cn1"
class = "criterion not met"

[[record]]
smilesstructure = "CNc1ccnc(-c2nc(C(F)(F)F)c(Oc3ccc(Cl)c(C(F)(F)F)c3)c(=O)[nH]2)c1"
class = "criterion not met"

[[record]]
smilesstructure = "O=c1[nH]c(-c2ccc(Cl)cn2)nc(C(F)(F)F)c1Cc1ccc(Cl)c(Cl)c1"
class = "criterion not met"

[[record]]
smilesstructure = "CSc1ccnc(-c2nc(C(F)(F)F)c(Oc3ccc(Cl)c(Cl)c3)c(=O)[nH]2)c1"
class = "criterion not met"

[[record]]
smilesstructure = "Cc1cc(Nc2nc(C(F)(F)F)c(Oc3ccc(Cl)c(Cl)c3)c(=O)[nH]2)on1"
class = "criterion not met"

[[record]]
smilesstructure = "Nc1nc[nH]c1-c1nc(C(F)(F)F)c(Oc2ccc(Cl)c(C(F)(F)F)c2)c(=O)[nH]1"
class = "criterion not met"

